Hello, the source for this data is PubChem BioAssay AID1345082, in case you need it.

Experiment: Cytotoxic Profiling in NIH 3T3 Cell Line of Diverse Libraries Using Quantitative High-Throughput Screening; note: nearly all actives have a fitted effect of over 55% in size
Conditions: NIH 3T3 viability, CellTiter-Glo ATP luminescence, 48-72 h; series mostly up to 96.7 µM
Among all 94,000 compounds or so, about 4,000 (4.3%) were called active. About 29% were inconclusive and are not listed. Calls come from the whole dose curve; as a rule, active = well fitted inhibition curve with a large enough effect; inconclusive = small, poorly fitted or top-dose-only effect; inactive = no such curve, though single readings can be large or run the other way. The list comes from a sample in which actives are over-represented; it also holds close analogues and randomly drawn compounds.
Bench note: report the call from active, inactive

Test call for this compound, please: COc1ccccc1C(=O)N1CCCN(CCc2ccccc2)c2ccccc21
active

Test call for this compound, please: NCC(=O)N1Cc2ccccc2CC2(CCCCN2CC2CCOCC2)C1 (stereo not given)
inactive

Test call for this compound, please: CC(C)c1ccc(CNC(=O)CCn2ccn3nc4c(c3c2=O)CCCC4)cc1
inactive

Test call for this compound, please: O=C(O)C[C@@H]1CCN(C(=O)Nc2ccccc2)C[C@@H]1CC1=NCCc2cc(F)ccc21
inactive

Test call for this compound, please: COc1ccc(CNC(=O)NCC2Cn3cccc3CN2C)cc1 (stereo not given)
inactive

Test call for this compound, please: O=C(C1CCCC1)N1Cc2ccccc2CC2(CCCCN2CC2CCNCC2)C1 (stereo not given)
active

Test call for this compound, please: COc1ccc2[nH]c(C(=O)N3C[C@@H](Oc4ccccc4)C[C@H]3C(=O)N3CCCC3)cc2c1
inactive

Test call for this compound, please: O=C(NC1CCN(c2cc(-c3ccc(F)cc3)[nH]n2)C1)c1cc2ccccc2[nH]1 (stereo not given)
active

Test call for this compound, please: OC[C@@H]1O[C@H](CNC2CCOCC2)[C@H](N2CCCC2)[C@@H]1O
inactive

Test call for this compound, please: COCCNc1ncnc2c1CN(C1CCCNCC1)C(=O)CN2C (stereo not given)
inactive

Test call for this compound, please: O=C(C[C@@H]1O[C@H](CNC(=O)C2CC2)[C@@H](O)[C@H]1O)NCCN1CCOCC1
inactive

Test call for this compound, please: C[S+](=O)([O-])N1Cc2ccccc2OC2(CCN(C(=O)Cc3cccc(O)c3)CC2)C1
inactive

Test call for this compound, please: O=C(Nc1cccc(F)c1)c1cc2n(n1)CC(c1ccc(Cl)cc1)OC2 (stereo not given)
inactive

Test call for this compound, please: CC(C)NC(=O)C1CCC(=O)N1C1CCN(C(=O)C2CCCCC2)CC1 (stereo not given)
inactive

Test call for this compound, please: O=C(NCC1CCN(c2cc(-c3ccc(Cl)cc3)[nH]n2)CC1)c1ccc2nc[nH]c2c1
active

Test call for this compound, please: Cc1ccc(C(=O)N2C[C@@H](CO)[C@H](c3ccncc3)C2)c(C)c1
inactive

Test call for this compound, please: O=C(Cc1ccc(F)cc1)NC1CCN(c2cc(-c3ccc(Cl)cc3)[nH]n2)CC1
inactive

Test call for this compound, please: O=C(Nc1cccc(Cl)c1)[C@@H]1C[C@@H](c2ccc(F)cc2)N([S+](=O)([O-])c2cccnc2)C1
active

Test call for this compound, please: COc1ccc(C(=O)N2CCCC2C(=O)N2CCCC2c2nc3ccncc3[nH]2)cc1 (stereo not given)
inactive

Test call for this compound, please: CSCCNC(=O)c1cc(-c2ccc(Cl)nc2)nc2c1cnn2C
inactive

---

Assay: Cytotoxic Profiling in NIH 3T3 Cell Line of Diverse Libraries Using Quantitative High-Throughput Screening; note: nearly all actives have a fitted effect of over 55% in size
Details: NIH 3T3 viability, CellTiter-Glo ATP luminescence, 48-72 h; series mostly up to 96.7 µM
The whole screen tested about 94,000 compounds, of which about 4,000 (4.3%) were called active. Inconclusive results (about 29%) are left out. Calls follow the shape of the dose curve; as a rule, active = well fitted inhibition curve with a large enough effect; inconclusive = small, poorly fitted or top-dose-only effect; inactive = no such curve, though single readings can be large or run the other way. The full list was thinned out, with actives kept by preference.
Bench note: report the call from yes (active), no (inactive)

Test call for this compound, please: COc1ccccc1Nc1ccnc(N2CCC(NC(=O)NC(C)C)CC2)n1
no

Test call for this compound, please: CCNC(=O)N[C@H]1CC[C@]2(C)CC[C@@H]([C@H](C)C(=O)NCc3ccco3)[C@H](O)[C@H]2[C@@H]1C
no

Test call for this compound, please: O=C(NCCC1COc2ccccc2O1)c1ccc(N2CCCOCC2)nc1 (stereo not given)
no

Test call for this compound, please: COc1ccc(CN2CCc3oc(C)c(C(=O)NCCN4CCCC4)c3C2)cc1
no

Test call for this compound, please: COc1ccccc1CN(C(=O)c1cccc(-c2noc(C)n2)c1)C1CC1
no

Test call for this compound, please: O=c1n(CCN2CCN([S+](=O)([O-])c3cccs3)CC2)nc2n1CCCC2
no

Test call for this compound, please: CCCN(CC1CCOC1)C(=O)Nc1ccccc1C(F)(F)F (stereo not given)
no

Test call for this compound, please: CCOc1ccc(C(=O)N2C[C@@H](CO)[C@H](c3ccncc3)C2)cc1
no

Test call for this compound, please: COc1ccccc1Nc1ccnc(N2CCC(N[S+](=O)([O-])c3cccs3)CC2)n1
yes

Test call for this compound, please: O=[S+]([O-])(c1cccs1)N1CCN(c2nccc(Nc3ccccc3F)n2)CC1
yes
